Catalogue of ELISA Ratio values
- targetOfAssay: T1, LINGO-Fc (human, UniProt Q96FE5 40-538, limits assumed)
- T1 construct: not shown: Fc part
- T1 sequence: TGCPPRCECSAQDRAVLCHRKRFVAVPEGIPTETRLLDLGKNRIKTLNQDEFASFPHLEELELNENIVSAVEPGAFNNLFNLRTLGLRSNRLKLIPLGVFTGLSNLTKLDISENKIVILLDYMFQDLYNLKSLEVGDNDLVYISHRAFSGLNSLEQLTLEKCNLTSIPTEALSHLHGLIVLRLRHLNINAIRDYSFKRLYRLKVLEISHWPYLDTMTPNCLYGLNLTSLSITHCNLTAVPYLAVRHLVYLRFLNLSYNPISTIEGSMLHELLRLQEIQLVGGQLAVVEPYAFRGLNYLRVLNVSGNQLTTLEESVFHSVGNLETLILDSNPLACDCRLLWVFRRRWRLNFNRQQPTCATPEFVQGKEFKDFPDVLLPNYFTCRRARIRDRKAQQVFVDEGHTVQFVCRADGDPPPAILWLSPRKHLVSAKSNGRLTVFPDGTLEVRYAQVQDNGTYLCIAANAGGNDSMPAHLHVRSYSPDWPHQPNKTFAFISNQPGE
- protocolDetails: direct ELISA on LINGO-Fc; half-maximal concentration relative to Li33;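 note: direct binding ELISA on plates coated with LINGO-Fc, concentration giving half of saturating binding, expressed as a ratio to the same value for the comparator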
# output: bare number, implied unit ratio

Answered examples (4):
>  <binder>
Li33 variant W94D (SEQ ID NO:166) (antibody, V domains shown, unchanged chain from WT Li33) VH: EVQLLESGGGLVQPGGSLRLSCAASGFTFSIYPMFWVRQAPGKGLEWVSWIGPSGGITKYADSVKGRFTISRDNSKNTLYLQMNSLRAEDTATYYCAREGHNDWYFDLWGRGTLVTVSS VL: DIQMTQSPGTLSLSPGERATLSCRASQSVSSYLAWYQQKPGQAPRLLIYDASNRATGIPARFSGSGSGTEFTLTISSLQSEDFAVYYCQQYDKDPLTFGGGTKVEIKR

>  <experimentalEndpoint>
ELISA Ratio

>  <resultUnits>
ratio

>  <recordedResult>
1.5

$$$$
>  <binder>
Li33 variant P53T (SEQ ID NO:153) (antibody, V domains shown, unchanged chain from WT Li33) VH: EVQLLESGGGLVQPGGSLRLSCAASGFTFSIYPMFWVRQAPGKGLEWVSWIGTSGGITKYADSVKGRFTISRDNSKNTLYLQMNSLRAEDTATYYCAREGHNDWYFDLWGRGTLVTVSS VL: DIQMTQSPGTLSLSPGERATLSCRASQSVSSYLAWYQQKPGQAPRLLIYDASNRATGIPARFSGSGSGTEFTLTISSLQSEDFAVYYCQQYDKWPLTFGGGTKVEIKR

>  <experimentalEndpoint>
ELISA Ratio

>  <resultUnits>
ratio

>  <recordedResult>
2.1

$$$$
>  <binder>
Li33 variant W104S (SEQ ID NO:157) (antibody, V domains shown, unchanged chain from WT Li33) VH: EVQLLESGGGLVQPGGSLRLSCAASGFTFSIYPMFWVRQAPGKGLEWVSWIGPSGGITKYADSVKGRFTISRDNSKNTLYLQMNSLRAEDTATYYCAREGHNDSYFDLWGRGTLVTVSS VL: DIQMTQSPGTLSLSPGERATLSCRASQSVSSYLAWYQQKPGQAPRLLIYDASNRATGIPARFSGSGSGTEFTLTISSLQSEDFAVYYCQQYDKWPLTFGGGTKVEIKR

>  <experimentalEndpoint>
ELISA Ratio

>  <resultUnits>
ratio

>  <recordedResult>
2.7

$$$$
>  <binder>
Li33 variant W104I (SEQ ID NO:179) (antibody, V domains shown, unchanged chain from WT Li33) VH: EVQLLESGGGLVQPGGSLRLSCAASGFTFSIYPMFWVRQAPGKGLEWVSWIGPSGGITKYADSVKGRFTISRDNSKNTLYLQMNSLRAEDTATYYCAREGHNDIYFDLWGRGTLVTVSS VL: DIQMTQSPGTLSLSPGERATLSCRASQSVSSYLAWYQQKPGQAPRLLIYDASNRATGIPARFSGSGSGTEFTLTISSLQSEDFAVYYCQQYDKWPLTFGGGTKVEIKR

>  <experimentalEndpoint>
ELISA Ratio

>  <resultUnits>
ratio

>  <recordedResult>
6.5

$$$$

Continue with the binder presented below.
Exam item: Tell me the measured ELISA Ratio of Li33 variant I57V (SEQ ID NO:185) (antibody, V domains shown, unchanged chain from WT Li33) VH: EVQLLESGGGLVQPGGSLRLSCAASGFTFSIYPMFWVRQAPGKGLEWVSWIGPSGGVTKYADSVKGRFTISRDNSKNTLYLQMNSLRAEDTATYYCAREGHNDWYFDLWGRGTLVTVSS VL: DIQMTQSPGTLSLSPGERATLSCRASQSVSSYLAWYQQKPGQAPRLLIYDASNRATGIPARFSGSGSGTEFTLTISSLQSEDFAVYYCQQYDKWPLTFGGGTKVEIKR , please.
Marked response: 1.4
